# method.summary: log P by HPLC on reversed-phase column (EEC directive 79/831 Annex V.A8)
# Assay type: physicochemical
# run.conditions: pH 2.7
property.label: chromatographic logP
Answer with the value's number alone.

compound	chromatographic logP
CC(=O)c1c([O-])n(Cc2cnc(Cl)s2)c2cccc[n+]12 [Example I-1-043]	1.29
O=C(CCl)c1c([O-])n(Cc2cnc(Cl)s2)c2cccc[n+]12 [Example I-1-002]	1.69
O=C(NC1CC1)c1c([O-])n(Cc2cnc(Cl)s2)c2cccc[n+]12 [Example I-1-111]	1.63
COC(=O)c1c([O-])n(Cc2ccc(Cl)nc2)c2nccc[n+]12 [Example I-4-001]	1.15
COC(=O)c1c([O-])n(Cc2cnc(Cl)s2)c2cccc[n+]12 [Example I-1-085]	1.23
CC(C)OCC(=O)c1c([O-])n(Cc2cnc(Cl)s2)c2cccc[n+]12 [Example I-1-026]	1.8
CCSCC(=O)c1c([O-])n(Cc2cnc(Cl)s2)c2cccc[n+]12 [Example I-1-028]	1.99
COCC(=O)c1c([O-])n(Cc2cnc(Cl)s2)c2cccc[n+]12 [Example I-1-008]	1.23
O=C(CCl)c1c([O-])n(Cc2ccc(Cl)nc2)c2scc[n+]12 [Example I-5-001]	1.33

Moving on to the next compound.
**Query** Entry CCNCC(=O)c1c([O-])n(Cc2cnc(Cl)s2)c2cccc[n+]12 [Example I-1-021] : reported chromatographic logP = ?
**Result** 0.57
